Origin of values: PubChem BioAssay AID817

# Assay text: growth rescue of sdo1-depleted yeast, primary screen, S. cerevisiae, bone marrow failure model (AID 817);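 further: z-score against mean and SD of all compound wells on the same plate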
# Measurement context: S. cerevisiae sdo1-depleted JHY4D growth rescue, OD600; measured here: growth rescue at 24 h; at 10 µM; stronger effect = higher value; pdr5 snq2 efflux-pump mutant strain
In all, about 140,000 compounds went through this assay and about 300 (0.21%) were called active. Only a selection was taken, and actives are over-represented in it overall.
The label depends only on z-score: 1 (yes) if it is at least -0.2, 0 (no) if it is smaller.

Compound | Assigned label
COc1ccc(C2=NN(C(=O)c3cccnc3)C(c3ccccc3)C2)cc1 (centres undefined) | 0 (no)
COc1ccccc1N1CCN(C(=O)C(=O)N/N=C/c2ccccc2F)CC1 | 1 (yes)
CC(C)CCNC(=O)c1cccnc1Sc1ccccc1 | 1 (yes)
COCCn1c(=NC(=O)c2ccccc2[N+](=O)[O-])sc2cc(S(C)(=O)=O)ccc21 | 0 (no)
CCN(C(=O)COc1cccnc1[N+](=O)[O-])C1CCS(=O)(=O)C1 (centres undefined) | 1 (yes)

[ask] Does z-score meet or surpass -0.2 for COc1ccc2c(c1)C(SCC(=O)NCc1ccccc1)CC(C)(C)O2 (centres undefined) ?
[reply] 0 (no)
